All figures here come from ChEMBL document CHEMBL4673355.

Test system: Staphylococcus aureus
Assay: Antibacterial activity against methicillin- resistant Staphylococcus aureus 25 clinical isolate assessed as reduction in bacterial growth incubated for 24 hrs by CLSI broth microdilution method
Format: functional
quantity: MIC

{"columns": ["smiles str", "target or system", "data value"],
 "data": [
  ["CCCCCCCCCC[N+](C)(C)CCCNC(=O)COc1c2cc(C(C)(C)C)cc1Sc1cc(C(C)(C)C)cc(c1OCC(=O)NCCC[N+](C)(C)CCCCCCCCCC)Sc1cc(C(C)(C)C)cc(c1OCC(=O)NCCC[N+](C)(C)CCCCCCCCCC)Sc1cc(C(C)(C)C)cc(c1OCC(=O)NCCC[N+](C)(C)CCCCCCCCCC)S2.[Cl-].[Cl-].[Cl-].[Cl-]", "Staphylococcus aureus", "4 µg/mL"],
  ["CCCCCCCC[N+](C)(C)CCCNC(=O)COc1c2cc(C(C)(C)C)cc1Sc1cc(C(C)(C)C)cc(c1OCC(=O)NCCC[N+](C)(C)CCCCCCCC)Sc1cc(C(C)(C)C)cc(c1OCC(=O)NCCC[N+](C)(C)CCCCCCCC)Sc1cc(C(C)(C)C)cc(c1OCC(=O)NCCC[N+](C)(C)CCCCCCCC)S2.[Cl-].[Cl-].[Cl-].[Cl-]", "Staphylococcus aureus", "4 µg/mL"],
  ["CCCCCCCCCCCCCC(=O)NCCC[N+](C)(C)Cc1ccccc1.[Cl-]", "Staphylococcus aureus", "0.5 µg/mL"],
  ["CC(C)(C)c1cc2c(OCC(=O)NCCC[N+](C)(C)Cc3ccccc3)c(c1)Sc1cc(C(C)(C)C)cc(c1OCC(=O)NCCC[N+](C)(C)Cc1ccccc1)Sc1cc(C(C)(C)C)cc(c1OCC(=O)NCCC[N+](C)(C)Cc1ccccc1)Sc1cc(C(C)(C)C)cc(c1OCC(=O)NCCC[N+](C)(C)Cc1ccccc1)S2.[Cl-].[Cl-].[Cl-].[Cl-]", "Staphylococcus aureus", "16 µg/mL"]
]}
